experiment: Components of the Cytosolic LPS Sensing Pathway: Gene Identification via Genome-wide siRNA Screen; conditions: RAW264.7 macrophages, IL-1a HTRF, actives lie on both sides, screened at 100 nM (by protocol), cells primed 5 h with Pam3CSK4 first
In all, about 53,000 sequences went through this assay and about 3,700 (7%) were called active.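 Rule for the calls: active = gene knockdowns whose robust z-score for IL-1 alpha signal is at least 2 or at most -2, so actives lie on both sides; inactive = the rest.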 The full list was thinned out, with actives kept by preference.
Would you mind answering with one of these outcomes? active, inactive

Use these answered entries as a reference point.
Chain sequence: GGCCCAAACACGUGUAAAATT against Kdm5b
Discrete label: inactive

Chain sequence: GGAGAUGAAGCUCUGGAUATT against Spock2
Discrete label: inactive

Chain sequence: GGAUGUUUGGACAAUCUAUTT against Itga4
Discrete label: inactive

Chain sequence: UCUAUCUCAUUACUAUUGUTT against Olfr190
Discrete label: inactive

Chain sequence: GGCUCACAUUGUAACUUAGTT against Krtap5-2
Discrete label: inactive

Request: I'd appreciate the recorded outcome for GGAAGAGCAGGCAUCCAUATT against Ranbp10 from this test.
Result: inactive

Origin of the recorded values: PubChem BioAssay AID1508600
